assay: HILIC, HILICON iHILIC-(P) Classic, HILIC, PEEK, 100 × 2.1 mm, 5 µm, 40 °C, 0.12 mL/min, estimated dead time 1.8 min; A: water + 20 mM ammonium carbonate + 5 µM medronic acid; B: 10% water + 90% acetonitrile + 2 mM ammonium carbonate + 0.5 µM medronic acid; gradient (min/%B) 0/95 18/55 19/20 22/20 22.5/95 24/95 26/95; settings: stereoisomer not certain
metric: LC retention time (min)

NC(=O)c1ccc[n+](C2OC(COP(=O)(O)OP(=O)(O)OCC3OC(n4cnc5c(N)ncnc54)C(O)C3O)C(O)C2O)c1 (configuration not stated)
10.4

[P] NC(=O)CCC(N)C(=O)O (configuration not stated)
[Q] C=C(OP(=O)(O)O)C(=O)O
-- ask Kindly identify the item with the lower LC retention time figure among these two: P and Q Choose, then provide that item's label.
-- reply P
(P: 9.95 min, Q: 14.5 min)

[1] O=C(O)CC(O)(CC(=O)O)C(=O)O
[2] CC(=O)SCCNC(=O)CCNC(=O)C(O)C(C)(C)COP(=O)(O)OP(=O)(O)OCC1OC(n2cnc3c(N)ncnc32)C(O)C1OP(=O)(O)O (configuration not stated)
-- ask # returns the entry with the larger LC retention time; inputs 1 and 2 Kindly state the label of the option you pick.
-- reply 1
(1: 15 min, 2: 10 min)

* * *

assay: HILIC, HILICON iHILIC-(P) Classic, HILIC, PEEK, 100 × 2.1 mm, 5 µm, 40 °C, 0.12 mL/min, estimated dead time 1.8 min; A: water + 20 mM ammonium carbonate + 5 µM medronic acid; B: 10% water + 90% acetonitrile + 2 mM ammonium carbonate + 0.5 µM medronic acid; gradient (min/%B) 0/95 18/55 19/20 22/20 22.5/95 24/95 26/95; settings: stereoisomer not certain
metric: LC retention time (min)

Please review the entries below; each comes with its answer.
CC(=O)NC1C(OP(=O)(O)OP(=O)(O)OCC2OC(n3ccc(=O)[nH]c3=O)C(O)C2O)OC(CO)C(O)C1O (stereo not given)
11.7
O=C(O)CC(C(=O)O)C(O)C(=O)O (stereo not given)
15.7

[1] NCCCCC(N)C(=O)O (stereo not given)
[2] NC(CCC(=O)NC(CS)C(=O)NCC(=O)O)C(=O)O (stereo not given)
[3] Nc1ncnc2c1ncn2C1OC(CO)C(O)C1O (stereo not given)
-- ask # rank by LC retention time, ascending (min first) Field: ranking. Enter the labels in the order requested.
-- reply 3, 2, 1

* * *

experiment: HILIC, HILICON iHILIC-(P) Classic, HILIC, PEEK, 100 × 2.1 mm, 5 µm, 40 °C, 0.12 mL/min, estimated dead time 1.8 min; A: water + 20 mM ammonium carbonate + 5 µM medronic acid; B: 10% water + 90% acetonitrile + 2 mM ammonium carbonate + 0.5 µM medronic acid; gradient (min/%B) 0/95 18/55 19/20 22/20 22.5/95 24/95 26/95; settings: stereoisomer not certain
metric: LC retention time (min)

Reference set, count: 8
O=P(O)(O)OCC1OC(O)C(O)C(O)C1O (stereo unspecified) [Glucose-6-phosphate]
13.5
O=C(O)CCC(=O)O [Succinic Acid]
10.9
O=C(O)CC(O)C(=O)O (stereo unspecified) [Malic Acid]
11.9
O=C(CO)C(O)C(O)C(O)COP(=O)(O)O (stereo unspecified) [Fructose 6-phosphate]
12.5
NC(CCC(=O)O)C(=O)O (stereo unspecified) [Glutamic acid]
9.95
NC(=O)C1=CN(C2OC(COP(=O)(O)OP(=O)(O)OCC3OC(n4cnc5c(N)ncnc54)C(OP(=O)(O)O)C3O)C(O)C2O)C=CC1 (stereo unspecified) [NADPH]
15.5
Nc1ncnc2c1ncn2C1OC(COP(=O)(O)OP(=O)(O)O)C(O)C1O (stereo unspecified) [ADP]
12.2
NC(N)=NCCCC(N)C(=O)O (stereo unspecified) [Arginine]
18.9

[I] NC(=O)CC(N)C(=O)O (stereo unspecified) [Asparagine]
[II] O=P(O)(O)OCC1OC(O)(COP(=O)(O)O)C(O)C1O (stereo unspecified) [Fructose-1,6-bisphosphate]
[III] CC(O)C(=O)O (stereo unspecified) [Lactic Acid]
-- ask Arrange these compounds by their LC retention time, starting with the largest number. Enter labels, ranked according to the request.
-- reply II, I, III
